Consider the following molecules; for each one, report its log10 IC50.
ASSAY_SYSTEM: Growth hormone secretagogue receptor type 1 (Homo sapiens)
Sequence (Q92847 whole entry): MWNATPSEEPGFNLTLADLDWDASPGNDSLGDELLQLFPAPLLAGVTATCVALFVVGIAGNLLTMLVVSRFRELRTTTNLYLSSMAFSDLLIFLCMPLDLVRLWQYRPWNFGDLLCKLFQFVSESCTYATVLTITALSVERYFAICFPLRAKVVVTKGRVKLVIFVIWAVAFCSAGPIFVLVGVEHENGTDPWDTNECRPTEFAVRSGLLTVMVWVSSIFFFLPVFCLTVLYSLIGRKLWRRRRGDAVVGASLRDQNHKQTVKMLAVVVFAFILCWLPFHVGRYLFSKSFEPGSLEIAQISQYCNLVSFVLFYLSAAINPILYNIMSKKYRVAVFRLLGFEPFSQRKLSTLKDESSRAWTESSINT
PROCEDURE_DETAILS: Ability to displace [125I]ghrelin from cloned human GHS-R expressed in CHO-K cells was determined (Kd of ghrelin is 0.4 nM)
Assay type: cell-based
Values are log10 of IC50 in nM.

Prompt: Quick one: log10 IC50 of CCN(CC)c1ccc(NC(=O)c2c(-c3c(Cl)cccc3Cl)noc2CCC2OCCO2)cc1 ?
Response: 1.40

Prompt: Requested read-out: log10 IC50. Entry: CCc1onc(-c2c(Cl)cccc2Cl)c1C(=O)Nc1ccc(N(CC)CC)cc1
Response: 2.17

Prompt: Need log10 IC50 of CCN(CC)[C@H]1CC[C@H](NC(=O)c2c(-c3c(Cl)cccc3Cl)noc2C)CC1 , thanks.
Response: 1.72

Prompt: Fill in the blank: the reported log10 IC50 of CCN(CC)c1ccc(NC(=O)c2c(-c3c(Cl)cccc3Cl)noc2CCN2CCCC2=O)cc1 is ____.
Response: 1.26

Prompt: Request the reported log10 IC50 associated with CCN(CC)c1ccc(NC(=O)c2c(-c3c(Cl)cccc3Cl)noc2CCN2C(=O)CCC2(C)C)cc1
Response: 1.59

Prompt: What log10 IC50 value was documented for this molecule, CCN(CC)c1ccc(NC(=O)c2c(-c3c(Cl)cccc3Cl)noc2CCC2CCCO2)cc1 (centres undefined) ?
Response: 1.76

Prompt: Item CCN(CC)[C@H]1CC[C@H](NC(=O)c2c(-c3c(Cl)cccc3Cl)noc2CCC2OCCCO2)CC1 has what recorded log10 IC50?
Response: 1.94

Prompt: Report log10 IC50 for CCN(CC)[C@H]1CC[C@H](NC(=O)c2c(-c3c(Cl)cccc3Cl)noc2CCC2CCCO2)CC1 (some centres undefined) please.
Response: 2.29

Prompt: Entry CCN(CC)c1ccc(NC(=O)c2c(-c3c(Cl)cccc3Cl)noc2CCC2CCOCC2)cc1 : reported log10 IC50 = ?
Response: 1.46
